Data provenance is PubChem BioAssay (NCI).

Tested on: 786-0 renal
PROTOCOL_SUMMARY: NCI-60 one-dose screen, 48 h (100 = growth as untreated, 0 = no growth, -100 = all killed)
EXPERIMENTAL_PARAMETERS: 10 µM unless noted
The panel holds about 83,000 compounds, 20% with a hit somewhere; the sample as a whole holds those more often.
Would you mind telling me the reported growth of each entry?
Answers are plain numbers, in %.

CCN1CCN(c2nc(C)cc(NCc3cc(Nc4ccnc5cc(Cl)ccc45)ccc3F)n2)CC1 = -51.2
CCSC1=NC2C(N(CC)C(=O)N2CC)N1/N=C/C=C/c1ccccc1[N+](=O)[O-] (centres undefined) = 19
Nc1n[nH]c2cc(F)c([C@@H]3Nc4c(F)cc5[nH]ncc5c4[C@H]4C5CCC(C5)[C@@H]34)cc12 (some centres undefined) = 29.2

Field: growth. Fill in for each record below.
1. Cc1cc(NCCCCNc2ccnc3cc(Cl)ccc23)nc(Nc2ccc(C(=O)N3CCCCC3)cc2)n1
2. COc1cc(/C=C/C(=O)c2c(C)nc3ccccc3c2C)ccc1OCCCN1CCN(C(=O)c2ccco2)CC1
3. CC1CC2Oc3ccc(Cl)cc3C(=O)N2O1 (centres undefined)
4. Cc1occc1-c1n[nH]c(=S)n1N1C(=O)CSC1=S
5. COC(=O)[C@]12CC[C@@H](C)[C@H](C)[C@@H]1C1=CC[C@@H]3[C@@]4(C)C(C=O)=C[C@@](C)(COC(C)=O)[C@@H]4C(=O)C[C@@]3(C)[C@]1(C)CC2
6. COC(=O)[C@]12CC[C@@H](C)[C@H](C)[C@@H]1C1=CC[C@@H]3[C@@]4(C)C(C=O)=C[C@@](C)(COC(C)=O)[C@@H]4[C@H](O)C[C@@]3(C)[C@]1(C)CC2

Response line:
[-87.6, 85.9, 104, 100, 37.3, -36.2]

* * *

Test system: SF-268 CNS
PROTOCOL_SUMMARY: NCI-60 one-dose screen, 48 h
EXPERIMENTAL_PARAMETERS: 10 µM unless noted
This is part of a sample that, as a whole, favours compounds with a hit. Of some 83,000 tested, about 20% had one in any assay. The source made the active and inactive calls. The calls were made as follows: active = growth percent below 10; inactive = the rest.
Give one outcome, nothing more. List: 1 for active, 0 for inactive

Example entries and their recorded answers appear below.
COc1ccc2c(c1)C(=O)/C(=C/c1cccc(OCC(=O)Nc3nc(C)c(C)s3)c1)O2 = 1
COc1ccc(C2C(c3nn[nH]n3)=C(N)Oc3c2ccc2ccccc32)cc1 (stereo unspecified) = 0
NC1=NCc2nc3ccccc3c(=O)n2C1 = 0
CCCCNC(=O)Oc1ccc2c(=O)c3sc4c(=O)c5ccccc5c(=O)c4c3c(=O)c2c1 = 1

Prompt line: Assay result, entry CC(C)(C)C(CCc1ccc(Cl)cc1)N1CCN(C2CCCCC2)CC1 (stereo unspecified) — outcome?
Response line: 0

Prompt line: Assay result, entry c1c[nH]c(CNC2CCCCC2)c1 — outcome?
Response line: 0

Prompt line: Assay result, entry COc1ccc(Cl)cc1NC(=O)C(Br)C(Br)C(=O)O (stereo unspecified) — outcome?
Response line: 0

Prompt line: Assay result, entry CC/C=C1/C(=O)C=C[C@@H]1C/C=C\CCCC(=O)O — outcome?
Response line: 0

Prompt line: Assay result, entry O=C(N/N=C/c1ccncc1)c1ccc(C(F)(F)F)nc1Nc1cccc(C(F)(F)F)c1 — outcome?
Response line: 0

Prompt line: Assay result, entry CCCCCS(=O)(=O)Nc1ccc(C(=O)O)cc1 — outcome?
Response line: 0

Prompt line: Assay result, entry C(=N\Nc1ncc(-c2cc3cc4c(cc3o2)OCO4)s1)/c1ccco1 — outcome?
Response line: 0

* * *

Test system: SK-OV-3 ovarian
PROTOCOL_SUMMARY: NCI-60 one-dose screen, 48 h (100 = growth as untreated, 0 = no growth, -100 = all killed)
EXPERIMENTAL_PARAMETERS: 10 µM unless noted
The panel holds about 83,000 compounds, 20% with a hit somewhere; the sample as a whole holds those more often.
Could you label it Condition met if measured growth is 80% or higher, and Condition not met otherwise?

Example entries and their recorded answers appear below.
O=C(Nc1ccc(-n2cc(-c3ccncc3)c(-c3ccc(Cl)c(O)c3)n2)cc1)N1CCOCC1 = Condition met
COc1nc(N(C)O)nc(N(C)O)n1 = Condition not met

Prompt line: Item COc1cc(C2CC(c3ccc(Nc4ccnc5cc(Cl)ccc45)cc3)=NN2C=O)cc(OC)c1OC (stereo not given) with growth of 80% or above?
Response line: Condition met

Prompt line: Item COc1cccc(-c2nn(-c3ccccc3)cc2-c2ccnc(NCCCNC(=O)c3ccccc3)c2)c1 with growth of 80% or above?
Response line: Condition not met

Prompt line: Item COc1ccc(-c2nc(SCCC(C)C)nc(N/N=C\c3ccccc3O)c2C#N)cc1 with growth of 80% or above?
Response line: Condition met

Prompt line: Item Cc1ccc(-c2c(-c3ccccc3)c(=O)oc3ccc(C)cc23)cc1 with growth of 80% or above?
Response line: Condition met

Prompt line: Item COc1ccccc1CNCCCN1C(=O)c2ccc3c4c(ccc(c24)C1=O)C(=O)N(CCCNCCCCN)C3=O with growth of 80% or above?
Response line: Condition not met

Prompt line: Item CC(C)=C[C@@H]1c2c(c3ccccc3n(C)c2=O)O[C@H]2c3c(c4ccccc4n(C)c3=O)OC(C)(C)[C@@H]12 with growth of 80% or above?
Response line: Condition met

Prompt line: Item CCN(CC)CCN1C(=O)c2c(c(C)c3c(oc4cc(O)ccc43)c2C)C1=O with growth of 80% or above?
Response line: Condition met

* * *

Tested on: HS 578T breast
PROTOCOL_SUMMARY: NCI-60 one-dose screen, 48 h (100 = growth as untreated, 0 = no growth, -100 = all killed)
EXPERIMENTAL_PARAMETERS: 10 µM unless noted
This is part of a sample that, as a whole, favours compounds with a hit. Of some 83,000 tested, about 20% had one in any assay.
MEASURE: growth (%)
One number for each entry, in %.

Field: growth. Fill in for each record below.
1. O=C(O)c1ccc2c(c1)CCC2
2. Cc1c(O)cc(-c2cnc(N/N=C\c3ccc(Cl)cc3)s2)c(O)c1C
3. N#C/C(=C\c1ccc(Br)cc1)n1nnc2cc(F)c(F)cc21
4. N=c1sc(Cc2ccc(Cl)cc2)cn1CC(=O)c1ccc(F)cc1
5. COc1cc(/C=C/C(=O)c2c(C)nc3ccccc3c2C)ccc1OCCCN1CCN(C(=O)c2ccco2)CC1
6. CCC(CO)Nc1nc2ccc(Cl)cc2c2ccccc12 (stereo unspecified)

Response line:
1: 134; 2: 77.6; 3: 56.1; 4: 96.9; 5: 82.1; 6: 29.5

* * *

Test system: HT29 colon
PROTOCOL_SUMMARY: NCI-60 one-dose screen, 48 h
EXPERIMENTAL_PARAMETERS: 10 µM unless noted
This is part of a sample that, as a whole, favours compounds with a hit. Of some 83,000 tested, about 20% had one in any assay. Calls of active or inactive are those of the source. How the source made its calls: active means growth percent below 10; inactive means the rest.
Give one outcome, nothing more. List: active, inactive

Example entries and their recorded answers appear below.
Cc1cccc(NC(=O)CSc2nc3ccccc3[nH]2)c1 = inactive
NC1=NCc2nc3ccccc3c(=O)n2C1 = inactive
C#CCOc1nc(C)cc(C)c1C#N = inactive
N#Cc1nc(C#N)c(Sc2ccccc2)c(Sc2ccccc2)c1Sc1ccccc1 = active
NS(=O)(=O)c1cnccc1Sc1ccncc1S(N)(=O)=O = inactive

Prompt line: Assay result, entry Cc1ccc(/C=C/c2c(C(=O)/C=C/c3ccc(Cl)cc3)c(C)nc3ccccc23)cc1 — outcome?
Response line: active

* * *

System: M14 melanoma
PROTOCOL_SUMMARY: NCI-60 one-dose screen, 48 h
EXPERIMENTAL_PARAMETERS: 10 µM unless noted
Description: Growth inhibition of the M14 human tumor cell line is measured as a screen for anti-cancer activity. Cells are grown in 96 well plates and exposed to the test compound for 48 hours. Compounds are tested at a single concentration, which is 10^-5 M for most compounds. The reported endpoint is percent growth (GI% or GIPRCNT), where numbers from 0 - 100% represent growth inhibition, and numbers from -100% - 0 represent cell death. For example, a value of 40 represents 60% growth inhibition. […]
Compounds without any hit were thinned out: in the full panel of roughly 83,000, 20% have a hit. Activity calls are given as the source filed them. How the source made its calls: active means growth percent below 10; inactive means the rest.
Give one outcome, nothing more. List: active, inactive

COc1ccc2[nH]c(O)c(/C=c3/cc4c(c(-c5ccc(F)c(OC)c5)n3)=Nc3ccccc3-4)c2c1 = active
COc1ccc2c(c1)O/C(=C/c1ccc(OCC(=O)c3ccccc3)cc1)C2=O = inactive
O=C(Nc1cccc(Oc2nnc(Cl)c3ccccc23)c1)Nc1ccc(Cl)c(C(F)(F)F)c1 = active
c1cc2ccc3cc2cc1CNCCOCCNCc1ccc2ccc(cc2c1)CNCCOCCNC3 = inactive

Prompt line: Assay result, entry CN(C)CCCn1c(=O)c2ccccc2c2ccccc21 — outcome?
Response line: inactive

Prompt line: Assay result, entry Nc1n[nH]c2cc(F)c([C@@H]3Nc4c(F)cc5[nH]ncc5c4[C@H]4C5CCC(C5)[C@@H]34)cc12 (some centres undefined) — outcome?
Response line: inactive

Prompt line: Assay result, entry COC(=O)c1ccc(C2Nc3ccc(S(=O)(=O)Nc4ccc(C)c(C)c4)cc3C3OCCC23)cc1 (centres undefined) — outcome?
Response line: inactive

Prompt line: Assay result, entry OC(c1cccc(-n2ccc(C(F)(F)F)n2)c1)c1cnccc1NC1CCCCCC1 (centres undefined) — outcome?
Response line: active

Prompt line: Assay result, entry CC(=O)[C@@H]1CC[C@]2(COS(=O)(=O)c3ccc(C)cc3)CC[C@]3(C)[C@H](CC[C@@H]4[C@@]5(C)CCCNC(C)(C)[C@@H]5CC[C@]43C)[C@@H]12 — outcome?
Response line: inactive

Prompt line: Assay result, entry C=CCn1c(C)nc2cc(Nc3nc(Cl)nc4ccccc34)ccc21 — outcome?
Response line: inactive

Prompt line: Assay result, entry O=C(Nc1ccc(-n2cc(-c3ccncc3)c(-c3ccc(Cl)c(O)c3)n2)cc1)N1CCOCC1 — outcome?
Response line: inactive

Prompt line: Assay result, entry CCCCCCCCCCCCCCCCCC1=NCCN1CCOC1=C(Cl)C(=O)c2ccccc2C1=O — outcome?
Response line: inactive

Prompt line: Assay result, entry CCCCn1c(=O)c2c(nc(NCCc3ccc(O)c(O)c3)n2CCC)n(CCCC)c1=O — outcome?
Response line: inactive

Prompt line: Assay result, entry CCCCC1CCCCN1C(=O)OCC (centres undefined) — outcome?
Response line: inactive
